# System: Eimeria acervulina
# experiment: Cage experiment on coccidiosis/chicks, E. acervulina readout; note: key: 2=full action; 1=slight action; 0=inactive; D=death
# Assay type: in vivo
# study conditions: Table 4, dose 2.5 ppm; first symbol of cell
Entries and their Efficacy against Eimeria acervulina
measured parameter: Efficacy against Eimeria acervulina

>  <structure as smiles>
CCCCN(Cn1c(C(F)(F)F)nc2c(Br)cc3c(c21)OC(F)(F)C(F)(F)O3)C(=O)OCC

>  <target entity>
Eimeria acervulina

>  <reported>
1

$$$$
>  <structure as smiles>
CCOC(=O)N(Cn1c(C(F)(F)F)nc2c(Cl)cc3c(c21)OC(F)(F)C(F)(F)O3)C(C)C

>  <target entity>
Eimeria acervulina

>  <reported>
2

$$$$
>  <structure as smiles>
CCOC(=O)N(Cn1c(C(F)(F)F)nc2c(Br)cc3c(c21)OC(F)(F)C(F)(F)O3)C(C)C

>  <target entity>
Eimeria acervulina

>  <reported>
1

$$$$
>  <structure as smiles>
CCN(Cn1c(C(F)(F)F)nc2c(Cl)cc3c(c21)OC(F)(F)C(F)(F)O3)C(=O)OC

>  <target entity>
Eimeria acervulina

>  <reported>
1

$$$$
>  <structure as smiles>
CCN(Cn1c(C(F)(F)F)nc2c(Br)cc3c(c21)OC(F)(F)C(F)(F)O3)C(=O)OC

>  <target entity>
Eimeria acervulina

>  <reported>
1

$$$$
>  <structure as smiles>
COC(=O)N(Cn1c(C(F)(F)F)nc2c(Cl)cc3c(c21)OC(F)(F)C(F)(F)O3)c1ccccc1C

>  <target entity>
Eimeria acervulina

>  <reported>
0

$$$$
>  <structure as smiles>
COC(=O)N(C)Cn1c(C(F)(F)F)nc2c(Cl)cc3c(c21)OC(F)(F)C(F)(F)O3

>  <target entity>
Eimeria acervulina

>  <reported>
0

$$$$
>  <structure as smiles>
COC(=O)N(C)Cn1c(C(F)(F)F)nc2c(Br)cc3c(c21)OC(F)(F)C(F)(F)O3

>  <target entity>
Eimeria acervulina

>  <reported>
1

$$$$
>  <structure as smiles>
CCOC(=O)N(Cn1c(C(F)(F)F)nc2c(Cl)cc3c(c21)OC(F)(F)C(F)(F)O3)C1CCCCC1

>  <target entity>
Eimeria acervulina

>  <reported>
0

$$$$
